# System: AncSZ;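 further: 11-residue human phosphosite peptides and single-mutation variants displayed on the E. coli surface, counted by deep sequencing, each peptide's frequency after selection divided by its frequency in the unselected input library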;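 further: frequency after pTyr selection over input frequency; kinase dosed for 20-30% of maximal phosphorylation in three min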
# procedureText: phosphorylation enrichment, bacterial display (enrichment ratio); higher = better substrate or ligand; peptides without Tyr show the background
Binning of phosphorylation enrichment into classes: range A: < 0.7; range B: ≥ 0.7 and < 1; range C: ≥ 1

polymerSequence	class
DTLASYLDKVR [KRT12_Y139_R135T]	range A
STASGYSDVTD [DTX2_Y425]	range B
CASQLYPRHKH [DCTN4_Y263]	range A
LYSDHYSPSGR [TMPRSS12_Y23]	range C
DDLTDYLMKIL [ACTA1_Y190_R185D]	range C
VDEVLYEDSST [MTHFS_Y197]	range C
RRSQSYIPTSG [PLEKHA2_Y185]	range A
RFLERYIYNPE [HLA-DPB1_Y57_R61P]	range C
RAYSWYQHQRA [NDST1_Y714]	range C
ADTETYLLEKS [MYH7_Y266_I263T]	range C
CNPLRYPTIMI [OR6K6_Y160]	range B
ALECLYRREKR [TEKT5_Y195_H196R]	range B
EYKDAYTFAAD [BRDT_Y335_K336T]	range C
APQFTYAQGGQ [FLNA_Y1763_YF]	range A
KLGDVYVNVAF [PGK1_Y161_D164V]	range C
GSRGKYSSGFR [ATM_Y332]	range A
LEDDVYRKTCT [XPA_Y257_M256V]	range C
RLGNQHVNVMN [SLC3A1_Y461_Y461H]	range B
IFCIQYNICAF [MYH4_Y820_R823C]	range C
MRTMGYMPREM [CABP5_Y62_T65R]	range A
PTQLPYDHKWK [KIT_Y578_E583K]	range B
SIRFNYLLDVL [FGFR4_Y237_YF]	range B
GEHSIYSTVNN [CD55_Y266_C267S]	range B

The origin of these recorded values is the supplement of paper PMC10065799.
